# TARGET OF ASSAY: HLA-A*31:01
# EXPERIMENT SUMMARY: IEDB peptide-MHC binding, purified MHC/direct/fluorescence; filed as Kd, often an IC50 or EC50 that approximates it; bounds were set here for any values at or beyond the usual limits of such assays
# TEST CONDITIONS: source organism: Comamonas sediminis
PARAMETER MEASURED: Kd (µM)
Answers are plain numbers, in µM.

Ask | Note Kd for the sequence shown: KSLGIDQIW
Reply | 4.66

====

# TARGET OF ASSAY: HLA-B*18:01
# EXPERIMENT SUMMARY: IEDB peptide-MHC binding, purified MHC/direct/fluorescence; filed as Kd, often an IC50 or EC50 that approximates it; bounds were set here for any values at or beyond the usual limits of such assays
# TEST CONDITIONS: source organism: Reston ebolavirus - Reston
pKd: −log10 of the molar value.
PARAMETER MEASURED: pKd

Ask | Find the measured pKd of QLSLRMLSL with HLA-B*18:01 as test system.
Reply | ≤ 4.70

====

# TARGET OF ASSAY: HLA-B*51:01
# EXPERIMENT SUMMARY: IEDB peptide-MHC binding, purified MHC/competitive/radioactivity; filed as Kd, often an IC50 or EC50 that approximates it; bounds were set here for any values at or beyond the usual limits of such assays
# TEST CONDITIONS: source organism: SARS coronavirus Tor2
PARAMETER MEASURED: Kd (nM)
One number for each entry, in nM.

Solved cases (2 shown):
| SEQUENCE DATA | Kd (nM) |
| --- | --- |
| SPSGVYQCAM | 1070 |
| SPYNSQNAVA | 3470 |

The record that follows has no Kd shown yet.
Ask | Note Kd for the sequence shown: LPFYSNVTGF
Reply | 861

====

# TARGET OF ASSAY: HLA-B*18:01
# EXPERIMENT SUMMARY: IEDB peptide-MHC binding, purified MHC/competitive/fluorescence; filed as Kd, often an IC50 or EC50 that approximates it; bounds were set here for any values at or beyond the usual limits of such assays
# TEST CONDITIONS: source organism: Pseudomonas aeruginosa UCBPP-PA14
pKd: −log10 of the molar value.
PARAMETER MEASURED: pKd

Ask | Note pKd for the sequence shown: FLDDASNSA
Reply | ≤ 4.70

====

# TARGET OF ASSAY: HLA-A*24:03
# EXPERIMENT SUMMARY: IEDB peptide-MHC binding, purified MHC/direct/fluorescence; filed as Kd, often an IC50 or EC50 that approximates it; bounds were set here for any values at or beyond the usual limits of such assays
# TEST CONDITIONS: source organism: Bacillus cereus NVH0597-99
PARAMETER MEASURED: Kd

Ask | Note Kd for the sequence shown: ITMYVAFEQ
Reply | ≥ 20 µM

====

# TARGET OF ASSAY: HLA-A*02:01
# EXPERIMENT SUMMARY: IEDB peptide-MHC binding, purified MHC/competitive/fluorescence; filed as Kd, often an IC50 or EC50 that approximates it; bounds were set here for any values at or beyond the usual limits of such assays
# TEST CONDITIONS: source organism: Bacillus anthracis str. A0488
PARAMETER MEASURED: Kd

Ask | Note Kd for the sequence shown: KQGDVFYTA
Reply | ≥ 20 µM

====

# TARGET OF ASSAY: HLA-B*58:01
# EXPERIMENT SUMMARY: IEDB peptide-MHC binding, purified MHC/competitive/fluorescence; filed as Kd, often an IC50 or EC50 that approximates it; bounds were set here for any values at or beyond the usual limits of such assays
# TEST CONDITIONS: source organism: Escherichia coli O139:H28 str. E24377A
PARAMETER MEASURED: pKd
Answers are plain numbers, as −log10 of the molar value.

Ask | Note pKd for the sequence shown: LANWCLLNY
Reply | 6.98

====

# TARGET OF ASSAY: HLA-A*26:01
# EXPERIMENT SUMMARY: IEDB peptide-MHC binding, purified MHC/direct/fluorescence; filed as Kd, often an IC50 or EC50 that approximates it; bounds were set here for any values at or beyond the usual limits of such assays
# TEST CONDITIONS: source organism: Rickettsia prowazekii
PARAMETER MEASURED: Kd

Ask | Note Kd for the sequence shown: NLKLYGAEF
Reply | ≥ 20 µM

====

# TARGET OF ASSAY: HLA-B*45:01
# EXPERIMENT SUMMARY: IEDB peptide-MHC binding, purified MHC/competitive/radioactivity; filed as Kd, often an IC50 or EC50 that approximates it; bounds were set here for any values at or beyond the usual limits of such assays
# TEST CONDITIONS: source organism: Mammarenavirus lassaense
PARAMETER MEASURED: pKd
Answers are plain numbers, as −log10 of the molar value.

Ask | Note pKd for the sequence shown: FDAATTGSL
Reply | 4.84

====

# TARGET OF ASSAY: HLA-A*31:01
# EXPERIMENT SUMMARY: IEDB peptide-MHC binding, purified MHC/direct/fluorescence; filed as Kd, often an IC50 or EC50 that approximates it; bounds were set here for any values at or beyond the usual limits of such assays
# TEST CONDITIONS: source organism: Salmonella enterica
PARAMETER MEASURED: Kd

Ask | Note Kd for the sequence shown: WTDLYTSMS
Reply | ≥ 20 µM

====

# TARGET OF ASSAY: HLA-B*58:01
# EXPERIMENT SUMMARY: IEDB peptide-MHC binding, purified MHC/direct/fluorescence; filed as Kd, often an IC50 or EC50 that approximates it; bounds were set here for any values at or beyond the usual limits of such assays
# TEST CONDITIONS: source organism: Mycobacterium tuberculosis C
pKd: −log10 of the molar value.
PARAMETER MEASURED: pKd

Ask | Find the measured pKd of FPRYPLNVL with HLA-B*58:01 as test system.
Reply | ≤ 4.70

====

# TARGET OF ASSAY: HLA-A*02:01
# EXPERIMENT SUMMARY: IEDB peptide-MHC binding, purified MHC/competitive/radioactivity; filed as Kd, often an IC50 or EC50 that approximates it; bounds were set here for any values at or beyond the usual limits of such assays
# TEST CONDITIONS: source organism: HIV-1 M:B_MN
PARAMETER MEASURED: Kd
Form field: result (number plus unit)

Ask | Note Kd for the sequence shown: LLQYWSQEL
Reply | 0.189 µM

====

# TARGET OF ASSAY: HLA-B*27:05
# EXPERIMENT SUMMARY: IEDB peptide-MHC binding, purified MHC/direct/fluorescence; filed as Kd, often an IC50 or EC50 that approximates it; bounds were set here for any values at or beyond the usual limits of such assays
# TEST CONDITIONS: source organism: Mycobacterium tuberculosis C
PARAMETER MEASURED: Kd

Ask | Note Kd for the sequence shown: FPRYPLNVL
Reply | ≥ 20 µM

====

# TARGET OF ASSAY: HLA-B*39:01
# EXPERIMENT SUMMARY: IEDB peptide-MHC binding, purified MHC/competitive/fluorescence; filed as Kd, often an IC50 or EC50 that approximates it; bounds were set here for any values at or beyond the usual limits of such assays
# TEST CONDITIONS: source organism: Vibrio vulnificus YJ016
PARAMETER MEASURED: Kd

| SEQUENCE DATA | EXPERIMENTAL RESULT |
| --- | --- |
| DFISMYFPW | ≥ 20 µM |

Give me Kd for each of these sequences, listed below.
1. LLRRRPYPL
2. SVMSTFFWE

Reply |
1: ≥ 20 µM; 2: ≥ 20 µM

====

# TARGET OF ASSAY: HLA-A*02:01
# EXPERIMENT SUMMARY: IEDB peptide-MHC binding, purified MHC/direct/fluorescence; filed as Kd, often an IC50 or EC50 that approximates it; bounds were set here for any values at or beyond the usual limits of such assays
# TEST CONDITIONS: source organism: Burkholderia pseudomallei
PARAMETER MEASURED: Kd (nM)
Numbers only, in nM.

Ask | Note Kd for the sequence shown: TMGPHPAGV
Reply | 0.7

====

# TARGET OF ASSAY: HLA-A*26:02
# EXPERIMENT SUMMARY: IEDB peptide-MHC binding, purified MHC/competitive/fluorescence; filed as Kd, often an IC50 or EC50 that approximates it; bounds were set here for any values at or beyond the usual limits of such assays
# TEST CONDITIONS: source organism: Influenza A virus H3N2
PARAMETER MEASURED: Kd (nM)
Give bare numbers, in nM.

Ask | Note Kd for the sequence shown: SFSFGGFTF
Reply | 1840
